Quick reference: viability, T/C of the listed items.
Tested on: 935938-334-R-J1-PDC complex spheroid viability
TEST_DESCRIPTION: Anticancer human tumor 935938-334-R-J1-PDC patient-derived small intestine adenocarcinoma cell line growth inhibition [POLQ]
RUN_CONDITIONS: second compound 0.1 µM; first compound 0.01 µM; active compounds read low
Enter your answer as a number in %; do not include the unit.

COMPOUND: COc1cccc(OCCCN)c1-c1cc(Nc2cnc(C#N)cn2)n[nH]1 + COC1C(OC(N)=O)C(O)C(Oc2ccc3c(O)c(NC(=O)c4ccc(O)c(CC=C(C)C)c4)c(=O)oc3c2C)OC1(C)C
viability, T/C, %: 89.1

Entry COc1cccc(OCCCN)c1-c1cc(Nc2cnc(C#N)cn2)n[nH]1 + Nc1ccc(C#CCN(C(=O)Cc2ncc(C(F)(F)F)cc2C(F)(F)F)c2ccc(F)cc2)nn1 ; viability, T/C = 99.2

Entry CC[C@@]1(O)C(=O)OCc2c1cc1n(c2=O)Cc2cc3c(CN(C)C)c(O)ccc3nc2-1 + Nc1ccc(C#CCN(C(=O)Cc2ncc(C(F)(F)F)cc2C(F)(F)F)c2ccc(F)cc2)nn1 ; viability, T/C = 98.1

Entry Cn1ncnc1[C@H]1c2n[nH]c(=O)c3cc(F)cc(c23)N[C@@H]1c1ccc(F)cc1 + Cc1cccc(N(C)C(=O)C2C(O)CCN2c2nc(C)cc(C(F)(F)F)c2C#N)c1 ; viability, T/C = 143

Entry Cn1ncnc1[C@H]1c2n[nH]c(=O)c3cc(F)cc(c23)N[C@@H]1c1ccc(F)cc1 + COC1C(OC(N)=O)C(O)C(Oc2ccc3c(O)c(NC(=O)c4ccc(O)c(CC=C(C)C)c4)c(=O)oc3c2C)OC1(C)C ; viability, T/C = 89.8

Entry CCc1c2c(nc3ccc(O)cc13)-c1cc3c(c(=O)n1C2)COC(=O)[C@]3(O)CC + COC1C(OC(N)=O)C(O)C(Oc2ccc3c(O)c(NC(=O)c4ccc(O)c(CC=C(C)C)c4)c(=O)oc3c2C)OC1(C)C ; viability, T/C = 73.7

Entry CCc1c2c(nc3ccc(O)cc13)-c1cc3c(c(=O)n1C2)COC(=O)[C@]3(O)CC + Cc1cccc(N(C)C(=O)C2C(O)CCN2c2nc(C)cc(C(F)(F)F)c2C#N)c1 ; viability, T/C = 66.6

Entry C=CCn1c(=O)c2cnc(Nc3ccc(N4CCN(C)CC4)cc3)nc2n1-c1cccc(C(C)(C)O)n1 + COC1C(OC(N)=O)C(O)C(Oc2ccc3c(O)c(NC(=O)c4ccc(O)c(CC=C(C)C)c4)c(=O)oc3c2C)OC1(C)C ; viability, T/C = 111

Entry C=CCn1c(=O)c2cnc(Nc3ccc(N4CCN(C)CC4)cc3)nc2n1-c1cccc(C(C)(C)O)n1 + Cc1cccc(N(C)C(=O)C2C(O)CCN2c2nc(C)cc(C(F)(F)F)c2C#N)c1 ; viability, T/C = 87.5

====

System: 935938-334-R-J1-PDC complex spheroid viability
TEST_DESCRIPTION: Anticancer human tumor 935938-334-R-J1-PDC cell line growth inhibition [POLQ]; active = viability on the fitted dose curve at most 10% of control; inactive = the rest;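 also: spheroids exposed to drugs for seven days before viability read; 100% = DMSO vehicle control wells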
RUN_CONDITIONS: second compound 0.1 µM; first compound 10 µM
Entry note: the call must match one of TRUE (active), FALSE (inactive)

Answered cases to consult:
COMPOUND: COc1cccc2c1C(=O)c1c(O)c3c(c(O)c1C2=O)CC(O)(C(=O)CO)CC3OC1CC(N)C(O)C(C)O1 (stereo not given) + Cc1cccc(N(C)C(=O)C2C(O)CCN2c2nc(C)cc(C(F)(F)F)c2C#N)c1
GROUP_LABEL: TRUE
--
COMPOUND: CCc1cc2c(N3CCc4c(cc(Cn5ccnc5)cc4-c4cn(C)nc4C(F)(F)F)C3=O)cc(C)nc2c(OC)n1 + Cc1cccc(N(C)C(=O)C2C(O)CCN2c2nc(C)cc(C(F)(F)F)c2C#N)c1
GROUP_LABEL: FALSE
--
COMPOUND: CC1COCCN1c1cc(C2(S(C)(=N)=O)CC2)nc(-c2ccnc3[nH]ccc23)n1 (stereo not given) + COC1C(OC(N)=O)C(O)C(Oc2ccc3c(O)c(NC(=O)c4ccc(O)c(CC=C(C)C)c4)c(=O)oc3c2C)OC1(C)C
GROUP_LABEL: FALSE
--
COMPOUND: CCc1cc2c(N3CCc4c(cc(Cn5ccnc5)cc4-c4cn(C)nc4C(F)(F)F)C3=O)ccnc2c(OC)n1 + COC1C(OC(N)=O)C(O)C(Oc2ccc3c(O)c(NC(=O)c4ccc(O)c(CC=C(C)C)c4)c(=O)oc3c2C)OC1(C)C
GROUP_LABEL: FALSE

Data request: Please share the test call associated with CCCS(=O)(=O)Nc1ccc(F)c(C(=O)c2c[nH]c3ncc(-c4ccc(Cl)cc4)cc23)c1F + Nc1ccc(C#CCN(C(=O)Cc2ncc(C(F)(F)F)cc2C(F)(F)F)c2ccc(F)cc2)nn1 .
Data returned: FALSE
